Field: melting point. Provide a value for each of the compounds that follow.

Illustrative cases are given below, each with its answer.
CC12CCC3c4ccc(C(=O)O)cc4CCC3C1CCC2C(=O)CCc1ccc(C(=O)O)cc1 (configuration not stated) :: 285 to 290 °C
Cc1cc2c(s1)C(C(=O)Nc1ccccc1)C(=O)N(C)S2(=O)=O (configuration not stated) :: 182 to 184 °C
CSC(=O)NCc1c[nH]c2ccccc12 :: 110 to 111 °C

Below are some compounds; for each one, tell me its melting point.
1. NC(=O)OCC(O)COc1noc2ccc(Cl)cc12 (configuration not stated)
2. O=C1C(C2=NCCS2)c2ccccc2N1C1=NCCS1 (configuration not stated)

1. 123 to 124 °C
2. 204 to 205 °C
